Experiment: Partition coefficient, log P of the compound
Format: physicochemical
Conditions: octanol/water
Let's look at some compounds and their measured logP.
Give only the figure.

Answered cases to consult:
{"compound": "CCOC(=O)C1(C)CCC=[N+]1[O-] (configuration not stated)", "logP": 0.15}
{"compound": "CCOC(=O)[C@@]1(CC)C[C@@H](C)C=[N+]1[O-] (relative stereo)", "logP": 1.34}
{"compound": "CCOC(=O)C1(CC)C(C)CC=[N+]1[O-] (mixture of isomers)", "logP": 1.07}
{"compound": "CCOC(=O)[C@]1(C)C[C@H](CC)C=[N+]1[O-] (relative stereo)", "logP": 1.38}

Returns the measured logP for the input compound. Input: CCOC(=O)C1(C)C(CC)CC=[N+]1[O-] (mixture of isomers)
1.34

I am curious: what logP value has been reported for CCOC(=O)[C@@]1(CC)C[C@H](C)C=[N+]1[O-] (relative stereo) ?
1.48

logP for CCOC(=O)[C@]1(C)C[C@@H](CC)C=[N+]1[O-] (relative stereo) ?
1.67
